- Assayed Target: p38a activated, mitogen-activated protein kinase-activated protein kinase 2 (MAPKAP-K2 or MK-2) enzyme (Homo sapiens (Human), UniProt P49137)
- Sequence (P49137 whole entry): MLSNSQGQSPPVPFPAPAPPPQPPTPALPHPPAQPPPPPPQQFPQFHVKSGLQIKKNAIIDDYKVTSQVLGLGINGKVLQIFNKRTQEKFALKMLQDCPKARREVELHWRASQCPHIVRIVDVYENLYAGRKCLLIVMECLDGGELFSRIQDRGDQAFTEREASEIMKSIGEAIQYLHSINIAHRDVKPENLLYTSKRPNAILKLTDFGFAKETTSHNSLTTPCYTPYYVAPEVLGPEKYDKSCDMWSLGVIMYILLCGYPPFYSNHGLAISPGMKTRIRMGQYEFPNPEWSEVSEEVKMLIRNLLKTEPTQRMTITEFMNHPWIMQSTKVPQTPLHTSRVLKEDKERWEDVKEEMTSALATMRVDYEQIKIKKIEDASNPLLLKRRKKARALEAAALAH
- Assay Info: MK2 Omnia continuous-read kinase assay for compound potency
- Test Settings: [MK-2]=0.4 nM, [ATP]=1.0 mM, [ST3-Sox]=10 μM
pIC50: −log10 of the molar value.

Compound	pIC50
C=CC(=O)Nc1cc(NC(=O)c2ccc3sc4c(c3c2)NC[C@@H](C)NC4=O)ccc1OCCN(C)C [III-35]	> 7.00
C=CC(=O)Nc1cc(-c2cc3c(cn2)CCc2c-3[nH]c3c2C(=O)NCC3)cnc1OCCOC [II-14]	> 7.00
C=CC(=O)NC1CCCC1NC(=O)c1ccc2cc3n(c2c1)C1(CCC1)CNC3=O (racemic) [Compound V-55]	< 6.00
C=CC(=O)Nc1ccccc1NC(=O)c1ccc2sc3c(c2c1)NC[C@@H](C)NC3=O [III-10]	6.30 to 7.00
C=CC(=O)N1CCOc2ncc(-c3cc4c(cn3)CCc3c-4[nH]c4c3C(=O)NCC4)cc21 [II-18]	> 7.00
C=CC(=O)N1CCOc2ccc(-c3nccc(-c4cc5c([nH]4)CCNC5=O)n3)cc21 [II-25]	> 7.00
C=CC(=O)Nc1ccccc1NC(=O)c1ccc2cc3n(c2c1)CCNC3=O [Compound V-8]	< 6.00
C=CC(=O)Nc1cc(-c2cc(Nc3c(N[C@H](C)c4ccccc4)c(=O)c3=O)ccn2)ccc1OC [VI-9]	< 6.00
C=CC(=O)Nc1cc(-c2cc3c(cn2)CCc2c-3[nH]c3c2C(=O)NCC3)cnc1N1CCN(C)CC1 [II-26]	> 7.00
C=CC(=O)N1Cc2cccc(NC(=O)c3ccc4cc5n(c4c3)C3(CCC3)CNC5=O)c2C1 [Compound V-48]	< 6.00
C=CC(=O)Nc1cc(-c2cc3c(cn2)CCc2c4c(n(C)c2-3)CC2(CC2)NC4=O)ccc1OCCOC [II-7]	6.30 to 7.00
C=CC(=O)Nc1cc(-c2cc3c(ccc4c5c(n(C)c43)CCC5=O)cn2)cnc1OC [II-e-21]	6.00 to 6.30
C=CC(=O)Nc1cc(-c2cc3c(cn2)CCc2c-3[nH]c3c2C(=O)NCC3)ccc1F [II-3]	> 7.00
C=CC(=O)Nc1cc(-c2cc3c(cn2)CCc2c-3[nH]c3c2C(=O)NCC3)cnc1OC [II-4]	> 7.00
C=CC(=O)NC1CCCC1NC(=O)c1ccc2sc3c(c2c1)NC[C@@H](C)NC3=O (stereo partly drawn) [III-47]	> 7.00
C=CC(=O)N1CCOc2ccc(-c3ncc4c(n3)-c3[nH]c5c(c3CC4)C(=O)NCC5)cc21 [II-24]	> 7.00
C=CC(=O)N1CCCC(NC(=O)c2ccc3sc4c(c3c2)NC[C@@H](C)NC4=O)C1 (stereo partly drawn) [III-51]	> 7.00
C=CC(=O)Nc1cc(-c2nccc(-c3cc4c([nH]3)C3(CCCNC3)CNC4=O)n2)ccc1OCCOC (racemic) [Compound I-7]	> 7.00

----------
- Assayed Target: p38a activated, mitogen-activated protein kinase-activated protein kinase 2 (MAPKAP-K2 or MK-2) enzyme (Homo sapiens (Human))
- Assay Info: MK2 Omnia continuous-read kinase assay for compound potency
- Test Settings: [MK-2]=0.4 nM, [ATP]=1.0 mM, [ST3-Sox]=10 μM
pIC50: −log10 of the molar value.
Property Label: pIC50

Compound	Value
CC(C)=CC(=O)COc1cc(NC(=O)c2ccc3sc4c(c3c2)NC[C@@H](C)NC4=O)ccc1F [III-2]	< 6.00
C=CC(=O)NC1CCCCC1NC(=O)c1ccc2cc3n(c2c1)CCNC3=O (racemic) [Compound V-10]	< 6.00
C=CC(=O)Nc1cc(NC(=O)c2ccc3cc4n(c3c2)C2(CCC2)CNC4=O)ccc1N1CCN(C)CC1 [Compound V-15]	> 7.00
C=CC(=O)Nc1cc(Cl)cc2oc(-c3ccc4cc5n(c4c3)C3(CCC3)CNC5=O)nc12 [Compound V-62]	6.30 to 7.00
C=CC(=O)Nc1cc(-c2ccc3c(ccc4sc5c(c43)NC[C@@H](C)NC5=O)n2)ccc1Cl [III-54]	> 7.00
C=CC(=O)Nc1cc(-c2cc3c(cn2)CCc2c-3[nH]c3c2C(=O)NCC3)ccc1N1CCN(C)CC1 [II-1]	> 7.00
C=CC(=O)Nc1cccc2[nH]c(-c3ccc4cc5n(c4c3)C3(CCC3)CNC5=O)nc12 [Compound V-63]	> 7.00
C=CC(=O)Nc1cc(NC(=O)c2ccc3sc4c(c3c2)NC[C@@H](C)NC4=O)ccc1F [III-6]	> 7.00
C=CC(=O)Nc1cc(-c2cc3c(ccc4c5c([nH]c43)CCC5=O)cn2)ccc1N1CCN(C(C)=O)CC1 [II-e-23]	> 7.00
C=CC(=O)NC1CN(C)CC1NC(=O)c1ccc2sc3c(c2c1)NC[C@@H](C)NC3=O (stereo partly shown) [III-50]	> 7.00
C=CC(=O)Nc1c(C)c(NC2CCCNC2)nc2ccnn12 (stereo not shown) [IV-b-1]	6.30 to 7.00
C=CC(=O)Nc1ccccc1C(=O)Nc1cc(-c2cc3c([nH]2)C2(CCCNC2)CNC3=O)ccn1 (racemic) [Compound I-4]	> 7.00
C=CC(=O)NC1CCCC1NC(=O)c1ccc2cc3n(c2c1)C1(CCC1)CNC3=O (racemic) [Compound V-56]	< 6.00
C=CC(=O)Nc1cccc(NC(=O)c2ccc3cc4n(c3c2)CCNC4=O)c1 [Compound V-7]	< 6.00
C=CS(=O)(=O)N1CCC[C@@H](NC(=O)c2ccc3sc4c(c3c2)NC[C@@H](C)NC4=O)C1 [III-44]	> 7.00
C=CC(=O)Nc1cc(NC(=O)c2ccc3sc4c(c3c2)NC[C@@H](C)NC4=O)ccc1C(F)(F)F [III-57]	6.00 to 6.30
C=CC(=O)Nc1cc(NC(=O)c2ccc3cc4n(c3c2)C2(CCC2)CNC4=O)ccc1F [Compound V-54]	6.30 to 7.00
C=CC(=O)Nc1cc(-c2cc3c(cn2)CCc2c-3[nH]c3c2C(=O)NC2(CC2)C3)ccc1OCCOC [II-11]	> 7.00
C=CC(=O)Nc1ccc2[nH]c(-c3ccc4cc5n(c4c3)C3(CCC3)CNC5=O)nc2c1 [Compound V-59]	> 7.00
C=CC(=O)Nc1cc(C)cc(-c2cc3c(ccc4c5c([nH]c43)CCC5=O)cn2)c1 [II-e-22]	6.30 to 7.00
C=CC(=O)N1CCOc2ccc(-c3cc4c(ccc5c6c([nH]c54)CCC6=O)cn3)cc21 [II-e-8]	> 7.00
C=CC(=O)N1CC(C)(C)Oc2ccc(-c3ccc4c(ccc5sc6c(c54)NC[C@@H](C)NC6=O)n3)cc21 [III-55]	> 7.00
C=CC(=O)N1C[C@H](C)Oc2ccc(NC(=O)c3ccc4sc5c(c4c3)NC[C@@H](C)NC5=O)cc21 [III-53]	> 7.00
C=CC(=O)Nc1cc(-c2ccc3c(ccc4sc5c(c43)NC[C@@H](C)NC5=O)n2)ccc1C1CCN(C)CC1 [III-58]	> 7.00
C=CC(=O)Nc1cccc(NC(=O)c2ccc3sc4c(c3c2)NC[C@@H](C)NC4=O)c1 [III-12]	> 7.00
C=CC(=O)N1CC(C)(C)Oc2ccc(NC(=O)c3ccc4cc5n(c4c3)C3(CCC3)CNC5=O)cc21 [Compound V-51]	> 7.00
C=CC(=O)N[C@H]1COC[C@H]1NC(=O)c1ccc2cc3n(c2c1)C1(CCC1)CNC3=O (racemic) [Compound V-49]	< 6.00
C=CC(=O)Nc1cc(Nc2c(C)c(NC3CCCNC3)nc3ccnn23)ccc1OCC (stereo not shown) [IV-1]	6.00 to 6.30
C=CC(=O)Nc1cccc2oc(-c3ccc4cc5n(c4c3)C3(CCC3)CNC5=O)nc12 [Compound V-39]	6.30 to 7.00
C=CC(=O)NCc1csc(NC(=O)c2ccc3cc4n(c3c2)C2(CCC2)CNC4=O)n1 [Compound V-43]	< 6.00
C=CC(=O)Nc1cc(NC(=O)c2ccc3sc4c(c3c2)NC[C@@H](C)NC4=O)ccc1N1CCCC1 [III-3]	> 7.00
